Values were extracted from patent US20210095028A1.

Recorded Bottom (best-fit) for the following binders
- assayed_target: T1, human TIGIT over-expressed on cells (human, UniProt Q495A1 22-244)
- T1 construct: also called CHO-K1/human TIGIT cells; CHO cells expressing human TIGIT
- T1 sequence: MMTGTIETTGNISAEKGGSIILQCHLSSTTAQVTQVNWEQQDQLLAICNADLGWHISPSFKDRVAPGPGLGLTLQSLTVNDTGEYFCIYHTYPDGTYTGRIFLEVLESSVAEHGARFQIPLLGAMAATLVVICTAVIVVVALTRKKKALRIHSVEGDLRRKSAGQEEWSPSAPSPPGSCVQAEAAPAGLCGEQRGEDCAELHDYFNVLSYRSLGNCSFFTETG
- test_protocol: competition FACS, CHO cells expressing human TIGIT; competitor PVR recombinant protein
- Method: The mixture was equilibrated for 30 minutes at room temperature, and washed three times with FACS buffer (PBS containing 1% BSA). PE/Cy5 Streptavidin secondary antibody was then added to the mixtures and incubated for 15 minutes at room temperature. Subsequently, the cells were washed with FACS buffer and analyzed by flow cytometry. Data was analyzed with PRISM™ (GraphPad Software, San Diego, Calif.) using non-linear regression, and IC₅₀ values were calculated (FIGS. 4A-4B and Table 6).
Lab note: record just the number, no unit beside it.

Return reported Bottom (best-fit); argument: 92E9D4B4 (antibody, V domains shown, Mouse monoclonal antibody; also called mouse anti-human TIGIT monoclonal antibody 92E9D4B4) VH: EVMLVESGGGLVKPGGSLKLSCAASGFTFSFYTMSWVRQTPEKRLEWVATISGGGGDTYYPDNVKGRFTISRDNAKNNLYLQMSSLRSEDTALYYCARSLPVDFWGQGTTLTVSS VL: QIVLTQSPAIMSASLGERVTMTCTASSSVSSTYLHWYQQKPGSSPKFWIYSTSNMASGVPARFSGSGSGTSYSLTISSMEAEDAATYYCHYYHRSPYTFGGGTKLEIK
10.3

---
I am curious: what Bottom (best-fit) value has been reported for 100C4E7D11 (antibody, V domains shown, Mouse monoclonal antibody; also called mouse anti-human TIGIT monoclonal antibody 100C4E7D11) VH: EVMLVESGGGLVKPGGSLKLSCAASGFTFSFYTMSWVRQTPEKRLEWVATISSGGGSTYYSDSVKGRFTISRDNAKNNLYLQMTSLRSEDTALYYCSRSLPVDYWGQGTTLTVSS VL: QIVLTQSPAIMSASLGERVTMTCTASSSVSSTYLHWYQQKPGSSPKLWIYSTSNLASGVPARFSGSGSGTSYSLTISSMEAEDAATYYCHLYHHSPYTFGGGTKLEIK ?
12.9

Would you kindly repeat that for 139E2C2D2 (antibody, V domains shown, Mouse monoclonal antibody; also called mouse anti-human TIGIT monoclonal antibody 139E2C2D2) VH: EVQLVESGGDLVKPGGSLKLSCAASGFTFSSYGMSWVRQTPDKRLEWVAIISSGGNYTYYPDSVKGRFTISRDNAKNTLYLQMSSLKSEDTAMYYCARQIHYFFAMDYWGQGTSVTVSS VL: DIQMTQSPASLSVSVGETVTITCRASENIYSNLAWYQQKQGKSPQLLVYAATNLADGAPSRFSGSRSGTQYSLKINSLQSEDFGSYYCQHFWGTAYTFGGGTKLEIK ?
10.4

Subsequent entry: 8F2D8E7 (antibody, V domains shown, Mouse monoclonal antibody; also called mouse anti-human TIGIT monoclonal antibody 8F2D8E7) VH: QVQLQQSGAELVKPGASVKLSCKTSGYTFTSYWIQWIKQRPGQGLGWIGEIFPGTGTTYYNEKFKGKATLTIDTSSSTAYMQLSSLTSEDSAVYSCARSRDGKVVDYWGQGTSVTVSS VL: DVQMTQTTSSLSASLGDRVTISCRASQDISNFLNWYQQRPDGTVKLLIYYTSKLHSGVPSRFSGSGSGTDYSLTIRNLEKEDIATYFCQQGNTPPYTFGGGTKLEIK
11.2

Repeat for the following binder: 64G1E9B4 (antibody, V domains shown, Mouse monoclonal antibody; also called mouse anti-human TIGIT monoclonal antibody 64G1E9B4) VH: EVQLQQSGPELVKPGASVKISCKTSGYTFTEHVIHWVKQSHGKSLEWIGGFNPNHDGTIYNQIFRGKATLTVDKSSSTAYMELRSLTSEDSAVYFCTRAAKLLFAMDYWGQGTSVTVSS VL: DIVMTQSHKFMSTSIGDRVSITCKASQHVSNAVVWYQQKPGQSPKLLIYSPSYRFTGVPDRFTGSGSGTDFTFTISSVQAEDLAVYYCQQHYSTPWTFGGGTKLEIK
9.5

Also, 48B5G4E12 (antibody, V domains shown, Mouse monoclonal antibody; also called mouse anti-human TIGIT monoclonal antibody 48B5G4E12) VH: QVQLQQPGAELVKPGASVKMSCKASGYTFTSYNMHWVKQTPGQGLEWIGGIYPGNGATSYNQKFKGKATLTADKSSSTAYMQLSSLTSEDSAVYYCARSGLRAMDYWGQGTSVTVSS VL: QIVLTQSPAIMSASPGEKVTMTCSASSSVSYMYWYQQKTGSSPRLLIYDTSNLASGVPVRFSGSGSGTSYSLTISRMEAEDAATYYCQQWSSYPYTFGGGTKLEIK please.
64.6

Also 11D8E12A4 (antibody, V domains shown, Mouse monoclonal antibody; also called mouse anti-human TIGIT monoclonal antibody 11D8E12A4) VH: EVLLQQSGPELVKPGASVKIPCKASGYTFTDYNMDWVKQSHGKSLEWIGDINPNNGGTIYNQKFKGKATLTVDKSSSTAYMELRSLTSEDTAVYYCARRWLLLVYTMDYWGQGTSVTVSS VL: QIVLTQSPAIMSASPGEKVTISCSASSSVSYMYWYQQKPGSSPKPWIYRTSNLASGVPARFSGSGSGTSYSLTISSMEAEDAATYYCHQYHNYPPTFGGGTKLEIK ?
21.2
